System: Aspergillus niger
PROTOCOL_DESCRIPTION: Antifungal activity against Aspergillus niger PTCC 5012 after 72 hrs by agar dilution method
Format: functional
For each of the molecules below, state its MIC.
Please respond with the number in µg/mL and leave the unit unwritten.

Name the recorded MIC of the molecule listed here: O=C(Cn1cnnc1)c1ccc(Cl)cc1O
32

Supply reported MIC belonging to this molecule: OC(Cn1cncn1)(Cn1cncn1)c1ccc(F)cc1F
32

Give MIC for O=C(Cn1ccnc1)c1ccccc1O
64

Kindly indicate its recorded MIC. Item: O=C(Cn1ccnc1)c1ccc(Cl)cc1O
64

Provide one value: measured MIC of O=C(Cn1c[n+](CC(=O)c2ccc(Cl)cc2O)cn1)c1ccc(Cl)cc1O.[Br-]
64

Give MIC for COc1ccc(C(=O)Cn2ccnc2)c(O)c1
16

###

Test system: Aspergillus niger
PROTOCOL_DESCRIPTION: Antifungal activity against Aspergillus niger PTCC 5012 after 72 hrs by agar dilution method
Type: functional
RECORDED_METRIC: MIC
Put your answer as a value accompanied by its unit after it.

Report MIC under test system Aspergillus niger for O=C(Cn1cncn1)c1ccccc1O .
32 µg/mL

Give MIC for COc1ccc(C(=O)Cn2c[n+](N)cn2)c(O)c1.[Br-] tested on Aspergillus niger.
16 µg/mL

Provide the reported MIC (system: Aspergillus niger) for COc1ccc(C(=O)Cn2cncn2)c(O)c1
32 µg/mL

# assay system Aspergillus niger: give MIC of O=C(Cn1c[n+](CC(=O)c2ccccc2O)cn1)c1ccccc1O.[Br-]
32 µg/mL

Report its MIC with Aspergillus niger as the test system: COc1ccc(C(=O)Cn2c[n+](CC(=O)c3ccc(OC)cc3O)cn2)c(O)c1.[Br-]
16 µg/mL

Report MIC on Aspergillus niger for this entry: O=C(Cn1cncn1)c1ccc(Cl)cc1O
16 µg/mL

State MIC on Aspergillus niger. Entry: Clc1ccc(COC(Cn2ccnc2)c2ccc(Cl)cc2Cl)c(Cl)c1 (stereo unspecified) [MICONAZOLE]
2 µg/mL

// output MIC; input N[n+]1cnn(CC(=O)c2ccccc2O)c1.[Br-] ; system Aspergillus niger
32 µg/mL

Print Aspergillus niger MIC for N[n+]1cnn(CC(=O)c2ccc(Cl)cc2O)c1.[Br-] .
32 µg/mL

GET MIC | system: Aspergillus niger | item: O=C(Cn1cnnc1)c1ccccc1O
16 µg/mL

# lookup: Aspergillus niger MIC, key = O/N=C(\Cn1ccnc1)c1ccccc1O
64 µg/mL
